The binders listed here are annotated with their KD ratio to GLS3000.
SYSTEM NAME: T1, CD3 epsilon homodimer protein (UniProt P07766 23-126)
T1 construct: also called CD3 (CD3 epsilon)
T1 sequence (P07766 23-126): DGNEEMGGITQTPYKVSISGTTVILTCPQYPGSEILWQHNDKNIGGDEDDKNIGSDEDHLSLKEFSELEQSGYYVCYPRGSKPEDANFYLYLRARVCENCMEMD
EXPERIMENT DESCRIPTION: SPR, antibody over immobilised CD3e homodimer;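 note: SPR at 25 °C with CD3 epsilon homodimer amine-coupled to a CM4 sensor chip and antibody flowed over as analyte in HBS-EP+ running buffer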

CE115HA000/GLS3000 Y32A (antibody, IgG1, name in Kabat numbering, V domains shown, one-arm IgG1) VH: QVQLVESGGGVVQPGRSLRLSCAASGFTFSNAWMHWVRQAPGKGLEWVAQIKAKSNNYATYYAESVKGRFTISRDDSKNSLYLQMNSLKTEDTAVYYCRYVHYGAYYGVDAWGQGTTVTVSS VL: DIVMTQSPLSLPVTPGEPASISCRSSQSLVHSNRNTALHWYQQKPGQAPRLLIYKVSNRFSGVPDRFSGSGSGTDFTLKISRVEAEDVGVYYCGQGTQVPYTFGQGTKLEIK = 66.8

Q: I have this binder here, CE115HA000/GLS3000 N28W (antibody, IgG1, name in Kabat numbering, V domains shown, one-arm IgG1) VH: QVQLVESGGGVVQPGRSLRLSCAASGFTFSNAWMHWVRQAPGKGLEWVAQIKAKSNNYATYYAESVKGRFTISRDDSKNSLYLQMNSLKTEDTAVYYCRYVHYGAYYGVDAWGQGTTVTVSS VL: DIVMTQSPLSLPVTPGEPASISCRSSQSLVHSWRNTYLHWYQQKPGQAPRLLIYKVSNRFSGVPDRFSGSGSGTDFTLKISRVEAEDVGVYYCGQGTQVPYTFGQGTKLEIK , and I need its recorded KD ratio to GLS3000.
Ans: 3.17
